assay.method.text: Compound cytotoxicity, XTT-based colorimetric assay
Type: cell-based
assay.conditions: human, uninfected MT2 cells, Table 1a, day 4, XTT
Measured CC50 at 4 days, listed per entry for reference.

[
  {
    "molecule": "Cn1nc(NS(C)(=O)=O)c2c(Cl)ccc(-n3c([C@H](Cc4cc(F)cc(F)c4)NC(=O)Cc4c[nH]c5ccc(F)cc45)nc4ncccc4c3=O)c21 [Example 51]",
    "CC50 at 4 days": "> 1000 nM"
  },
  {
    "molecule": "Cn1nc(NS(C)(=O)=O)c2c(Cl)ccc(-n3c([C@H](Cc4cc(F)cc(F)c4)NC(=O)Cn4nc(C(F)F)c5c4C(F)(F)[C@@H]4C[C@H]54)nc4c(F)ccc(F)c4c3=O)c21 (single isomer, unassigned) [Example 147]",
    "CC50 at 4 days": "> 1000 nM"
  },
  {
    "molecule": "O=C(Cn1nc(C(F)F)c2c1C(F)(F)[C@@H]1C[C@H]21)N[C@@H](Cc1cc(F)cc(F)c1)c1nc2ccccc2c(=O)n1-c1ccc(S(=O)(=O)N2CCOCC2)cc1 [Example 165]",
    "CC50 at 4 days": "> 10000 nM"
  },
  {
    "molecule": "Cn1nc(NS(C)(=O)=O)c2c(Cl)ccc(-n3c([C@H](Cc4cc(F)cc(F)c4)NC(=O)Cn4ccc(C5CC5)n4)nc4c(F)ccc(F)c4c3=O)c21 (single isomer, unassigned) [Example 145]",
    "CC50 at 4 days": "> 1000 nM"
  },
  {
    "molecule": "CSc1nc2nc(C(Cc3cc(F)cc(F)c3)NC(=O)Cn3nc(C(F)F)c4c3C(F)(F)[C@@H]3C[C@H]43)c(-c3ccc(Cl)c4c(NS(C)(=O)=O)nn(C)c34)cc2s1 (some centres unmarked) [Example 193]",
    "CC50 at 4 days": "> 10000 nM"
  },
  {
    "molecule": "COc1c(F)cc2c(=O)n(-c3ccc(Cl)c4c(NS(C)(=O)=O)nn(C)c34)c([C@H](Cc3cc(F)cc(F)c3)NC(=O)Cn3ccc(C4CC4)n3)nc2c1F (single isomer, unassigned) [Example 115]",
    "CC50 at 4 days": "> 1000 nM"
  },
  {
    "molecule": "COc1cc(F)c2c(=O)n(-c3ccc(Cl)c4c(NS(C)(=O)=O)nn(C)c34)c([C@H](Cc3cc(F)cc(F)c3)NC(=O)Cn3nc(C(F)F)c4c3C(F)(F)[C@@H]3C[C@H]43)nc2c1 (single isomer, unassigned) [Example 186]",
    "CC50 at 4 days": "> 1000 nM"
  },
  {
    "molecule": "COc1ccc2c(=O)n(-c3ccc(Cl)c4c(NS(C)(=O)=O)nn(C)c34)c([C@H](Cc3cc(F)cc(F)c3)NC(=O)Cn3ccc(C4CC4)n3)nc2n1 (mixture of isomers) [Example 58.1]",
    "CC50 at 4 days": "> 1000 nM"
  }
]

Data credit: patent US10954252B1
